Data origin, for the record: patent US10829473B2

Emax overview
- TARGET DESC: F508delCFTR (Homo sapiens, UniProt P13569, DEL508-508)
- Construct: expressed in transfected cells; host or cells: CFBE41o- human lung derived epithelial cells (CFBE41o-F508delCFTR-HRP), doxycycline-inducible
- Sequence (P13569 with tags, fused parts or gaps DEL508-508): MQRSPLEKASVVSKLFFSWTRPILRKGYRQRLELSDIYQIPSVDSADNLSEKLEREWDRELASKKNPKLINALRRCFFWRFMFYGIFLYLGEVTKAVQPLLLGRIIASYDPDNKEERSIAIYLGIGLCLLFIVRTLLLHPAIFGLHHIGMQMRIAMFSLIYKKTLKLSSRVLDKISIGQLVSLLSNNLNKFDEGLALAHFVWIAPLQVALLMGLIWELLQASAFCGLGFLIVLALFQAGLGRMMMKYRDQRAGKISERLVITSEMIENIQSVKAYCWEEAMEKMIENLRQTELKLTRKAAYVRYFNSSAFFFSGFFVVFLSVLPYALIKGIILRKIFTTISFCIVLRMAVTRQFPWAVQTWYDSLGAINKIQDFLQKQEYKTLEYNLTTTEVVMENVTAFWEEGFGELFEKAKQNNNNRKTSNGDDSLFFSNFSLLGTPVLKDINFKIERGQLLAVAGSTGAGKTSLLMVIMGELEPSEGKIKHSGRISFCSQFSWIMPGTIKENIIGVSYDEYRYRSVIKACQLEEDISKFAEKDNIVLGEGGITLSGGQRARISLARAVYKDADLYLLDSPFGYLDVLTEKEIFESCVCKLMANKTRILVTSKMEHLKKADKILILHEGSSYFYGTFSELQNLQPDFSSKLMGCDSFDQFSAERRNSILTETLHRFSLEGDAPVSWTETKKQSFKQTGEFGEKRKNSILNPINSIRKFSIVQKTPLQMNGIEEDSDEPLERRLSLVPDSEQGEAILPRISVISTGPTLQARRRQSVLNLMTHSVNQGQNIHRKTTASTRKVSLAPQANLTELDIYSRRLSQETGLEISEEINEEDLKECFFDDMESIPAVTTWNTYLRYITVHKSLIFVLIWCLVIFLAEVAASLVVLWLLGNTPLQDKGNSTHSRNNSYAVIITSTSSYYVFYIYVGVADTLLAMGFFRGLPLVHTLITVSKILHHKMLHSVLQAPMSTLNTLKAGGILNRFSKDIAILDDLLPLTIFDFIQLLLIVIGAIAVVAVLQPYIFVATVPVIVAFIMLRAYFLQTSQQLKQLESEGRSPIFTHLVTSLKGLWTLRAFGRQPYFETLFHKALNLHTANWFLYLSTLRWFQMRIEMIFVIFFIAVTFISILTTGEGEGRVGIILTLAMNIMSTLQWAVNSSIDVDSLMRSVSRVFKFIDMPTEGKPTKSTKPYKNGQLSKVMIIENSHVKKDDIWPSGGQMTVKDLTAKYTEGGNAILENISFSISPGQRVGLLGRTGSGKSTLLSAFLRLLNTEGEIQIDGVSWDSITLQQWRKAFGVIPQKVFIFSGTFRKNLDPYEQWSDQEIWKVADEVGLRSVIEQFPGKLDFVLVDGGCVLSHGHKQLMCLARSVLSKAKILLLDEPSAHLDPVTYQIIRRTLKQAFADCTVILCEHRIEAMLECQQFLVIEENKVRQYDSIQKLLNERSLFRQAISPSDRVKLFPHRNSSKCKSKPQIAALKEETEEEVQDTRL
- ASSAY REMARKS: Cell Surface Expression-Horse Radish Peroxidase (CSE-HRP) Assay;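 note: % of on-plate positive control chromenyl benzoic acid corrector at 2 or 3 µM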
- Type: cell-based
- CONDITIONS: without co-corrector; maximum at any tested concentration; read-out: Maximum % activity (without co-corrector)
READOUT NAME: Emax

{"COMPOUND": "COc1cc(C2CCC2)cc(OC)c1C1(C(=O)NS(=O)(=O)c2cccn3nccc23)CC1 [II-68]", "RESULT": "> 150%"}
{"COMPOUND": "O=C(NS(=O)(=O)c1ccccc1)C1(c2ccc(Cl)cc2Cl)CC1 [Example III-3]", "RESULT": "50 to 150%"}
{"COMPOUND": "COc1ccc(OC)c(C2(C(=O)NS(=O)(=O)c3cccc4ncccc34)CC2)c1 [Example I-29]", "RESULT": "> 150%"}
{"COMPOUND": "COc1cc(C)ccc1C1(C(=O)NS(=O)(=O)c2cccc3ncccc23)CC1 [II-63]", "RESULT": "> 150%"}

###

- TARGET DESC: F508delCFTR (Homo sapiens, UniProt P13569, DEL508-508)
- Construct: expressed in transfected cells; host or cells: CFBE41o- human lung derived epithelial cells (CFBE41o-F508delCFTR-HRP), doxycycline-inducible
- ASSAY REMARKS: Cell Surface Expression-Horse Radish Peroxidase (CSE-HRP) Assay;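 note: % of on-plate positive control chromenyl benzoic acid corrector at 2 or 3 µM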
- Assay type: cell-based
- CONDITIONS: without co-corrector; maximum at any tested concentration; read-out: Maximum % activity (without co-corrector)

{"SMILES CODE": "O=C(NS(=O)(=O)c1ccc(Cl)cc1)C1(c2cccc(Cl)c2)CC1", "TARGET DESC": "F508delCFTR (Homo sapiens, UniProt P13569, DEL508-508)", "Emax": "< 50%"}
{"SMILES CODE": "COc1ccc(C2CCC2)cc1C1(C(=O)NS(=O)(=O)c2cccc3c2CCCN3)CCC1", "TARGET DESC": "F508delCFTR (Homo sapiens, UniProt P13569, DEL508-508)", "Emax": "> 150%"}
{"SMILES CODE": "O=C(NS(=O)(=O)c1ccccc1)C1(c2ccc(F)cc2)CC1", "TARGET DESC": "F508delCFTR (Homo sapiens, UniProt P13569, DEL508-508)", "Emax": "< 50%"}
{"SMILES CODE": "COc1nc2ccccc2cc1C1(C(=O)NS(=O)(=O)c2cccc3ncccc23)CC1", "TARGET DESC": "F508delCFTR (Homo sapiens, UniProt P13569, DEL508-508)", "Emax": "> 150%"}
{"SMILES CODE": "O=C(NS(=O)(=O)c1cccc2c1CCCN2)C1(c2ccc(C(F)(F)F)nc2C2CCC2)CC1", "TARGET DESC": "F508delCFTR (Homo sapiens, UniProt P13569, DEL508-508)", "Emax": "> 150%"}
{"SMILES CODE": "COc1cc(OC(C)C)c(C2(C(=O)NS(=O)(=O)c3cccc4nc(C)ccc34)CC2)cn1", "TARGET DESC": "F508delCFTR (Homo sapiens, UniProt P13569, DEL508-508)", "Emax": "> 150%"}
{"SMILES CODE": "COC(=O)c1ccc(Cl)cc1S(=O)(=O)NC(=O)C1(c2ccc(Cl)cc2Cl)CC1", "TARGET DESC": "F508delCFTR (Homo sapiens, UniProt P13569, DEL508-508)", "Emax": "< 50%"}
{"SMILES CODE": "O=C(NS(=O)(=O)Cc1ccccc1)C1(c2ccccc2F)CC1", "TARGET DESC": "F508delCFTR (Homo sapiens, UniProt P13569, DEL508-508)", "Emax": "< 50%"}
{"SMILES CODE": "COc1ccc(C2CC2)c(C)c1C1(C(=O)NS(=O)(=O)c2cccc3nc(C)ccc23)CC1", "TARGET DESC": "F508delCFTR (Homo sapiens, UniProt P13569, DEL508-508)", "Emax": "> 150%"}
{"SMILES CODE": "COc1ccc(C2CCC2)cc1C1(C(=O)NS(=O)(=O)c2cccc3c2CCCN3)CC1", "TARGET DESC": "F508delCFTR (Homo sapiens, UniProt P13569, DEL508-508)", "Emax": "> 150%"}
{"SMILES CODE": "COc1ccc(C)c(C)c1C1(C(=O)NS(=O)(=O)c2cccc3nc(C)ccc23)CC1", "TARGET DESC": "F508delCFTR (Homo sapiens, UniProt P13569, DEL508-508)", "Emax": "> 150%"}
{"SMILES CODE": "COC(=O)c1ccc(S(=O)(=O)NC(=O)C2(c3ccc(Cl)cc3Cl)CC2)o1", "TARGET DESC": "F508delCFTR (Homo sapiens, UniProt P13569, DEL508-508)", "Emax": "< 50%"}
{"SMILES CODE": "COc1cccc(OCC2CC2)c1C1(C(=O)NS(=O)(=O)c2cccc3ncccc23)CC1", "TARGET DESC": "F508delCFTR (Homo sapiens, UniProt P13569, DEL508-508)", "Emax": "> 150%"}
{"SMILES CODE": "CCOc1ccc(OC)c(C2(C(=O)NS(=O)(=O)c3cccc4ncccc34)CC2)c1", "TARGET DESC": "F508delCFTR (Homo sapiens, UniProt P13569, DEL508-508)", "Emax": "> 150%"}
{"SMILES CODE": "CC(C)c1nc(C(F)(F)F)ccc1C1(C(=O)NS(=O)(=O)c2cccc3c2CCCN3)CC1", "TARGET DESC": "F508delCFTR (Homo sapiens, UniProt P13569, DEL508-508)", "Emax": "> 150%"}
